For each record, write down the corresponding IC50.
Tested on: Plasmodium falciparum
test_method_notes: Antiplasmodial activity against chloroquine-sensitive Plasmodium falciparum NF54 after 48 hrs by [3H]-hypoxanthine incorporation assay
Assay type: functional, organism-based
Form entry: value (µM) — number only.

Need IC50, item CCCCCC[C@@H]1[C@H]2C=C[C@@H]3[C@@H]4[C@H]2[C@H]1C[C@H]4C=C[C@H]3C(=O)O [CRYPTOBEILIC ACID D]
10.8

What about CCCCCC[C@@H]1[C@H]2C=C[C@H]3C(C(=O)O)=C[C@@H](O)[C@@H]4C[C@@H]1[C@@H]2[C@H]43 [CRYPTOBEILIC ACID B] ?
5.35

What about O=C(O)[C@@H]1C=C[C@@H]2C[C@H]3[C@H](Cc4ccc5c(c4)OCO5)[C@H]4C=C[C@@H]1[C@@H]2[C@H]43 [TSANGIBEILIN B] ?
8.2

What about O=C(O)C1=CC(=O)[C@@H]2C[C@H]3[C@H](Cc4ccc5c(c4)OCO5)[C@H]4C=C[C@@H]1[C@@H]2[C@H]43 [CRYPTOBEILIC ACID C] ?
14

What about CCCCCC[C@@H]1[C@H]2C=C[C@H]3C(C(=O)O)=C[C@H](O)[C@@H]4C[C@@H]1[C@@H]2[C@H]43 [CRYPTOBEILIC ACID A] ?
17.7

Taken from ChEMBL document CHEMBL2331079.
